System: HCT-116 colon
Assay: NCI-60 one-dose screen, 48 h (100 = growth as untreated, 0 = no growth, -100 = all killed)
Conditions: 10 µM unless noted
The panel holds about 83,000 compounds, 20% with a hit somewhere; the sample as a whole holds those more often.
Decision: growth >= 40% yields YES, all other cases yield NO.

>>> df
                                   molecule  category_label
0  COc1cc(Oc2cc(-c3cccnc3)ccc2NC(=O)Nc2ccc(F)cc2F)cc(OC)c1OC             YES
1  CC(C)[C@H]1CC[C@H]2[C@@H](CC[C@H]3[C@](C)(CN)CCC[C@]23C)C1              NO
2  CCC1=C(c2ccc(OC)cc2)C(C)Oc2cc(OC(C)=O)ccc21 (stereo unspecified)             YES
3  COc1ccc2c(c1)C(=O)c1c-2c(=O)n(CCCCCCC(=O)NO)c2ccccc12              NO
4  COc1ccc2nc(-c3ccc(-n4cncc4-c4ccc(OC)c(N)c4)cc3)sc2c1             YES

====

Test system: U251 CNS
Test: NCI-60 one-dose screen, 48 h (100 = growth as untreated, 0 = no growth, -100 = all killed)
Conditions: 10 µM unless noted
The panel holds about 83,000 compounds, 20% with a hit somewhere; the sample as a whole holds those more often.
Measured property: growth (%)

                                    molecule  measured_property  numeric_result
 0            COc1ccc(/C=C(\C#N)c2ccccc2)cc1             growth            81.4
 1  Cc1ccc(C(O)C2=CC(=O)c3ccccc3C2=O)cc1 (configuration not stated)             growth              96
 2                   Cc1ccsc1/C=C/C1=NCCCN1C             growth             100
 3  COc1cc(C2C=C(c3ccc(C)cc3)Nc3nc(SC)[nH]c(=O)c32)ccc1Oc1ccnc2cc(Cl)ccc12 (configuration not stated)             growth            80.1
 4  O=C(/C=C/c1cc2ccccc2[nH]c1=O)c1ccc(O)cc1             growth            21.9
 5  O=C(Nc1cccc(-n2cc(-c3ccncc3)c(-c3ccc(O)c(Cl)c3)n2)c1)Nc1ccc(Cl)c(C(F)(F)F)c1             growth           -64.4
 6   COc1cc(NC(=O)c2cc3ccccc3cc2O)c(OC)cc1Cl             growth            13.1
 7  CSc1ncc2ncn(C3OC(CO)C(O)C3O)c2n1 (configuration not stated)             growth             103
 8  N#Cc1cccc(/C=C(/C(=O)c2ccccc2)c2ccccc2)c1             growth            60.1
 9  CCC1=C(c2ccc(OC)cc2)C(C)Oc2cc(OC(C)=O)ccc21 (configuration not stated)             growth          -0.227
10  COc1ccc(C(=O)COc2cccc(/C=C3\Oc4ccc5ccccc5c4C3=O)c2)cc1             growth              84
11             CCCCCCOc1ccc(/C=N/NC(N)=S)cc1             growth            58.4
12  COc1ccc(-c2nnc(COc3ccc(NC(=O)Nc4cc(C(F)(F)F)cc(C(F)(F)F)c4)cc3F)o2)cc1             growth           0.294
13  COc1ccc2c3c(c(OCCCN(C)C)nc2c1)-c1ccc(Cl)cc1C3=O             growth           -84.9
14                O=C1OCCCCCCCCCC#Cc2ccccc21             growth             115
15  CC[N+](CC)(CCOCCOCC[N+](CC)(CC)Cc1ccc([N+](=O)[O-])cc1)Cc1ccc([N+](=O)[O-])cc1             growth             100
16  Cc1nn(-c2ccc(Br)cc2)c2nc3c(nc12)C(=O)C(=O)c1ccccc1-3             growth             103
17                Cc1cc(C(=O)O)c(C)cc1C(=O)O             growth             109
18    COc1ccc2c(c1)nc(N)c1c3cc(C)c(C)cc3cn21             growth            53.9
19            COc1cc2c(c(OC)c1OC)CCc1cnoc1-2             growth            98.7
20  Cc1nn(-c2ccccc2)c2nc(Cl)c(/C=C/C(=O)c3ccccc3)c(-c3ccccc3)c12             growth             104
21  CCC1=C(c2ccc(OC)cc2)C(C)(C)Oc2c1ccc(O)c2CN1CCCC1             growth           -25.4
22            CN=C(NC)N/N=C(C)\C=N\NC(=NC)NC             growth            98.8
23  COc1ccc(C(=O)/C=C/c2c(Cl)nc3c(c(C)nn3-c3ccccc3)c2-c2ccc(Br)cc2)cc1             growth             110
24      Clc1cccc(Cc2cn3cc(-c4ccccc4)nc3s2)c1             growth            67.7
25  O=C(/C(=C/c1ccc([N+](=O)[O-])cc1)c1ccccc1)c1ccccc1             growth            52.6
26  N#Cc1ccc(NC(=O)Nc2ccc(Oc3ccc(NC(=O)Nc4ccc(C#N)cc4)cc3)cc2)cc1             growth            27.7
27  O=C1Nc2ccc(F)cc2/C1=C/c1nc(-c2ccc(F)cc2)n2ccccc12             growth            83.5
28  O=C(/C=C/c1ccccc1)CC(c1ccccc1)N1CCOCC1 (configuration not stated)             growth           0.707
29  CC[N+](C)(CC)CCCC(C)Nc1ccnc2cc(Cl)ccc12 (configuration not stated)             growth            98.8
30                       N#CCCN(CCO)c1ccccc1             growth             101
31  COc1cc(Oc2cc(-c3cccnc3)ccc2NC(=O)Nc2ccc(F)cc2F)cc(OC)c1OC             growth            92.2
32  CCC[C@H](N[C@@H](C)C(=O)N1[C@H](C(=O)O)C[C@@H]2CCCC[C@@H]21)C(=O)OCC             growth            93.6
33         O=C(Cn1ccnc1)NC(c1ccccc1)c1ccccc1             growth             101
34  O=[N+]([O-])c1ccc(Oc2cccc(C(F)(F)F)c2)c([N+](=O)[O-])c1             growth            18.3
35  CCOC(=O)c1c2c(c(C)n1Cc1ccccc1)-c1nc(N)ncc1CC2             growth             106
36                   C[n+]1ccc(C#N)c2ccccc21             growth             104
